tested on: colorectal cancer cell (HCT-116); assay: Cytotoxic activity, MTT assay, HCT-116; assay type: cell-based, human; conditions: Homo sapiens, HCT-116, 48 h, MTT, 48 h incubation, ± SD of three experiments; read-out: HCT-116 IC50
# IC50 values compiled below

{"columns": ["Compound", "Target system", "IC50"],
 "data": [
  ["CC(=O)[C@@H]1CC[C@]2(C)CC[C@]3(C)[C@H](CC[C@@H]4[C@@]5(C)CC[C@H](O)C(C)(C)[C@@H]5CC[C@]43C)[C@@H]12 [Compound 2, 30-norlup-3β-ol-20-one]", "colorectal cancer cell (HCT-116)", "> 100 µg/mL"],
  ["C=C(CO)[C@@H]1CC[C@]2(C)CC[C@]3(C)[C@H](CC[C@@H]4[C@@]5(C)CCC(OC(=O)/C=C/c6ccc(O)c(O)c6)C(C)(C)[C@@H]5CC[C@]43C)[C@@H]12 (stereo partly drawn) [Compound 6, 30-hydroxy lup-20(29)-ene 3β-caffeate]", "colorectal cancer cell (HCT-116)", "68 µg/mL"],
  ["C=C(C)[C@@H]1CC[C@]2(C)CC[C@]3(C)[C@@H](CC[C@@H]4[C@@]5(C)C=CC(=O)C(C)(C)[C@@H]5CC[C@]43C)[C@@H]12 [Compound 3, ∆^1-lupenone]", "colorectal cancer cell (HCT-116)", "> 100 µg/mL"],
  ["C=C(C)[C@@H]1CC[C@]2(C)CC[C@]3(C)[C@H](CC[C@@H]4[C@@]5(C)CC[C@H](O)C(C)(C)[C@@H]5CC[C@]43C)[C@@H]12 [Compound 1, lupeol]", "colorectal cancer cell (HCT-116)", "> 100 µg/mL"]
]}

---

target: phosphodiesterase I (Crotalus adamanteus)
Sequence (J3SEZ3 24-851 limits assumed): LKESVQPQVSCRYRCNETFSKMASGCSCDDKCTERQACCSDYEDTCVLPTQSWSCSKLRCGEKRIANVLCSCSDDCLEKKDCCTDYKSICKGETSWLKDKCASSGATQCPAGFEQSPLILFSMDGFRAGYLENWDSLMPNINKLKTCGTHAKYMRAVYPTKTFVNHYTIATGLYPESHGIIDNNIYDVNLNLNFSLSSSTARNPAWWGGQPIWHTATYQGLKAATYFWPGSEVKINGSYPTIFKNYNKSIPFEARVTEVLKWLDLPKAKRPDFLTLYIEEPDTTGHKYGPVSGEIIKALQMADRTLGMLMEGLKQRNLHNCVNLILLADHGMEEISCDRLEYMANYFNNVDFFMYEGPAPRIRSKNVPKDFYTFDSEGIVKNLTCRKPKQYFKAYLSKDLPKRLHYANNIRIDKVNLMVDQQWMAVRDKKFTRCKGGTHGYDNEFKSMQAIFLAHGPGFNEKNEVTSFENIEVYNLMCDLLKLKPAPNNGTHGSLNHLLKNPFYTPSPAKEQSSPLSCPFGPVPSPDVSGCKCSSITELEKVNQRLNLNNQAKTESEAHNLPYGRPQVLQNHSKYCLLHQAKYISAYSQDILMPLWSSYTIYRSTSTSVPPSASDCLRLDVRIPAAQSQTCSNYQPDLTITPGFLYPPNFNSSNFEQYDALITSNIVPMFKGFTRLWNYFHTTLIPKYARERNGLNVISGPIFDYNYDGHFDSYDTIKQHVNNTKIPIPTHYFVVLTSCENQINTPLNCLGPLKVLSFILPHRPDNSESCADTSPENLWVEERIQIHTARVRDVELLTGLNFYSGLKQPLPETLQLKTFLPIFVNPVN
Property label: IC50 (µM)

{"columns": ["Compound", "Unit spec", "Reported result"],
 "data": [
  ["O=C(O)CN(CCN(CC(=O)O)CC(=O)O)CC(=O)O [EDTA, reference compound]", "µM", 274]
]}

---

test system: colorectal cancer cell (HCT-116); experiment: Cytotoxic activity, MTT assay, HCT-116; type: cell-based, human; settings: Homo sapiens, HCT-116, 48 h, MTT, 48 h incubation, ± SD of three experiments; read-out: HCT-116 IC50

{"columns": ["Compound", "Modifier", "IC50 / µg/mL"],
 "data": [
  ["C=C(CO)[C@@H]1CC[C@]2(C)CC[C@]3(C)[C@H](CC[C@@H]4[C@@]5(C)CC[C@H](O)C(C)(C)[C@@H]5CC[C@]43C)[C@@H]12", ">", 100],
  ["C=C(C)[C@@H]1CC[C@]2(C)CC[C@]3(C)[C@H](CC[C@@H]4[C@@]5(C)CCC(OC(=O)/C=C/c6ccc(O)c(O)c6)C(C)(C)[C@@H]5CC[C@]43C)[C@@H]12 (some centres unmarked) [Compound 5, lupeol caffeate]", "=", 59],
  ["C=C(C=O)C1CCC2(C)CCC3(C)C(CCC4C5(C)CCC(OC(=O)C=Cc6ccc(O)c(O)c6)C(C)(C)C5CCC43C)C12 (stereo not drawn) [Compound 7, lup-20(29)-ene 3β-caffeate-30-al]", "=", 62],
  ["CC[C@H](CC[C@@H](C)C1CCC2C3C(=O)C=C4C[C@@H](O)CC[C@]4(C)C3CC[C@@]21C)C(C)C (some centres unmarked)", "=", 22.3]
]}
